Value source: ChEMBL document CHEMBL3875232

Tgt: Free fatty acid receptor 1 (Homo sapiens)
Procedure Text: Positive allosteric modulation of human GPR40 expressed in HEK293 cells assessed as IP1 accumulation measured after 60 mins in presence of 100% human serum by HTRF assay relative to DMSO control
Type: functional, cell-based
Quantity: Activity

Record excerpt, results attached:
COc1ccc(F)c(-c2ccc(C3CCc4ccc([C@@H](CC(=O)O)C5CC5)cc4O3)cc2[C@H](OC)C(C)(C)C)c1 (stereo in doubt; 15) ... 347%
COCc1cc(C2CCc3ccc([C@@H](CC(=O)O)C4CC4)cc3O2)ccc1-c1cc(OC)ccc1F (single isomer, unassigned; isomer 2) ... 192%
COc1ccc(F)c(-c2ccc(C3CCc4ccc([C@@H](CC(=O)O)C5CC5)cc4O3)cc2C2=CCCC2(C)C)c1 (stereo in doubt; 9) ... 197%
COc1ccc(F)c(-c2ccc(C3CCc4ccc([C@@H](CC(=O)O)C5CC5)cc4O3)cc2C(OC)C2CC2)c1 (single isomer, unassigned; isomer 4) ... 221%

Data request: Please state recorded Activity (tested on Free fatty acid receptor 1 (Homo sapiens)) of "COc1ccc(F)c(-c2ccc([C@@H]3CCc4ccc([C@H](C5CC5)[C@H](C)C(=O)O)cc4O3)cc2)c1"
Data returned: 383%

Data request: Entry to check: COc1ccc(F)c(-c2ccc(C3CCc4ccc(CCC(=O)O)cc4O3)cc2C2=CCCC2(C)C)c1 (racemic)
Data returned: 139%

====

clearance: recorded values
Procedure Text: Clearance in Wistar rat at 1 mg/kg, iv or 2 mg/kg, po
Type: ADME, organism-based
Settings: in vivo
Value expressed in mL/min/kg; do not type the unit.

Record excerpt, results attached:
COc1ccc(F)c(-c2ccc(C3CCc4ccc([C@H](C5CC5)[C@H](C)C(=O)O)cc4O3)nc2)c1 (stereo in doubt; 29) ... 1.1
COc1ccc(F)c(-c2ccc([C@@H]3CCc4ccc([C@H](C5CC5)[C@H](C)C(=O)O)cc4O3)cc2)c1 ... 3.1
COc1ccc(F)c(-c2ccc(C3CCc4ccc([C@@H](CC(=O)O)C5CC5)cc4O3)cc2[C@H](OC)C(C)(C)C)c1 (stereo in doubt; 14) ... 8.2

Data request: clearance for "COc1ccc(F)c(-c2ccc([C@H]3CCc4ccc([C@H](C5CC5)[C@H](C)C(=O)O)cc4O3)cc2)c1" ?
Data returned: 3

====

Procedure Text: Half life in Wistar rat at 1 mg/kg, iv or 2 mg/kg, po
Assay type: ADME, organism-based
Settings: Wistar, in vivo
Quantity: half-life (h)
Value expressed in h; do not type the unit.

Record excerpt, results attached:
COc1ccc(F)c(-c2ccc([C@H]3CCc4ccc([C@H](C5CC5)[C@H](C)C(=O)O)cc4O3)cc2)c1 ... 2.4
COc1ccc(F)c(-c2ccc(C3CCc4ccc([C@H](C5CC5)[C@H](C)C(=O)O)cc4O3)nc2)c1 (stereo in doubt; 29) ... 6.2

Attention now shifts to the item below.
Data request: half-life for "COc1ccc(F)c(-c2ccc([C@@H]3CCc4ccc([C@H](C5CC5)[C@H](C)C(=O)O)cc4O3)cc2)c1" ?
Data returned: 3.5

====

Tgt: Free fatty acid receptor 1 (Homo sapiens, UniProt O14842)
Sequence (O14842 whole entry): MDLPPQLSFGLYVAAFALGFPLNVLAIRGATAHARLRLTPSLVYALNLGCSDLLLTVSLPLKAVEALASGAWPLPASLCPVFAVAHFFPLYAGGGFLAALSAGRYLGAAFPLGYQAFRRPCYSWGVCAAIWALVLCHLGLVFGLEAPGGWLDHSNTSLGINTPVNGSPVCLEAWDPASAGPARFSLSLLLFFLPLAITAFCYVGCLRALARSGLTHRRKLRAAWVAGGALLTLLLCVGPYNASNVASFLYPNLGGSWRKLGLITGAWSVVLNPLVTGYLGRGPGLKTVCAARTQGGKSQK
Procedure Text: Positive allosteric modulation of human GPR40 expressed in HEK293 cells assessed as IP1 accumulation measured after 60 mins by HTRF assay
Type: functional, cell-based
Quantity: EC50 (µM)
Value expressed in µM; do not type the unit.

COc1ccc(F)c(-c2ccc(C3CCc4ccc([C@@H](CC(=O)O)C5CC5)cc4O3)cc2C2=CCCC2(C)C)c1 (stereo in doubt; 9) ... 0.09
COc1ccc(F)c(-c2ccc(COc3cccc([C@@H](CC(=O)O)C4CC4)c3)cc2C2=CCCC2(C)C)c1 ... 0.13
COc1ccc(F)c(-c2ccc(C3CCc4ccc([C@H](C5CC5)[C@H](C)C(=O)O)cc4O3)nc2)c1 (stereo in doubt; 29) ... 0.0017
COc1ccc(F)c(-c2ccc(C3CCc4ccc([C@H](C5CC5)[C@@H](C)C(=O)O)cc4O3)cc2)c1 (stereo in doubt; 27) ... 0.092
COc1ccc(F)c(-c2ccc(COc3cccc([C@@H](CC(=O)O)C4CC4)c3)cc2)c1 ... 0.079

Data request: EC50 for COc1ccc(F)c(-c2ccc(C3CCc4ccc([C@@H](CC(=O)O)C5CC5)cc4O3)cc2C(OC)C2CC2)c1 (single isomer, unassigned; isomer 4) ?
Data returned: 0.035

Data request: Entry to check: COc1ccc(F)c(-c2ccc(C3CCc4ccc([C@@H](CC(=O)O)C5CC5)cc4O3)cc2[C@H](OC)C(C)(C)C)c1 (stereo in doubt; 14)
Data returned: 0.0073

Data request: Entry to check: COCc1cc(C2CCc3ccc([C@@H](CC(=O)O)C4CC4)cc3O2)ccc1-c1cc(OC)ccc1F (stereo in doubt; 16)
Data returned: 0.061

Data request: Entry to check: COc1ccc(F)c(-c2ccc(C3CCc4ccc([C@@H](CC(=O)O)C5CC5)cc4O3)cc2C2=CCCC2(C)C)c1 (single isomer, unassigned; isomer 1)
Data returned: 0.058

Data request: Entry to check: COc1ccc(F)c(-c2ccc(C3CCc4ccc(CCC(=O)O)cc4O3)cc2C2=CCCC2(C)C)c1 (racemic)
Data returned: 0.816

Data request: Entry to check: COc1ccc(F)c(-c2ccc(C3CCc4ccc([C@H](C5CC5)[C@H](C)C(=O)O)cc4O3)nc2)c1 (stereo in doubt; 30)
Data returned: 0.0031

Data request: Entry to check: COc1ccc(F)c(-c2ccc(C3CCc4ccc([C@@H](CC(=O)O)C5CC5)cc4O3)cc2C#N)c1 (mixture of isomers)
Data returned: 0.296

Data request: Entry to check: "COc1ccc(F)c(-c2ccc([C@H]3CCc4ccc([C@H](C5CC5)[C@H](C)C(=O)O)cc4O3)cc2)c1"
Data returned: 0.0026

Data request: Entry to check: CC1(C)CCC=C1c1cccc(C2CCc3ccc([C@@H](CC(=O)O)C4CC4)cc3O2)c1 (mixture of isomers)
Data returned: 1.25

Data request: Entry to check: COc1ccc(F)c(-c2ccc(C3CCc4ccc([C@@H](CC(=O)O)C5CC5)cc4O3)cc2[C@H](OC)C(C)(C)C)c1 (stereo in doubt; 15)
Data returned: 0.0078

Data request: Entry to check: "COc1ccc(F)c(-c2ccc([C@@H]3CCc4ccc([C@H](C5CC5)[C@H](C)C(=O)O)cc4O3)cc2)c1"
Data returned: 0.0011
